For reference, log10(IC50) measured on Xanthine dehydrogenase/oxidase (Bos taurus):
Friendly reminder: values = log10 of IC50, unit nM.

Use the examples below as a reference point.
CCOc1ccc(-c2c[nH]c(C(=O)O)n2)cc1C#N 2.98
CC(C)(C)COc1ccc(-n2cnc(C(=O)O)c2)cc1C#N 1.83

Entry CC(C)Oc1ccc(-c2c[nH]c(C(=O)O)n2)cc1C#N has what log10(IC50)? 2.88

Recorded log10(IC50) of CC1CCN(c2ccc(-n3cnc(C(=O)O)c3)cc2C#N)CC1 , please. 1.48

Would you mind telling me what log10(IC50) value was observed for CCOc1ccc(-n2cnc(C(=O)O)c2)cc1C#N ? 2.35

Given CC(C)COc1ccc(-c2cn(C)c(C(=O)O)n2)cc1C#N , state its recorded log10(IC50). 3.33

* * *

TEST_TARGET: Xanthine dehydrogenase/oxidase (Bos taurus)
Sequence (P80457 whole entry): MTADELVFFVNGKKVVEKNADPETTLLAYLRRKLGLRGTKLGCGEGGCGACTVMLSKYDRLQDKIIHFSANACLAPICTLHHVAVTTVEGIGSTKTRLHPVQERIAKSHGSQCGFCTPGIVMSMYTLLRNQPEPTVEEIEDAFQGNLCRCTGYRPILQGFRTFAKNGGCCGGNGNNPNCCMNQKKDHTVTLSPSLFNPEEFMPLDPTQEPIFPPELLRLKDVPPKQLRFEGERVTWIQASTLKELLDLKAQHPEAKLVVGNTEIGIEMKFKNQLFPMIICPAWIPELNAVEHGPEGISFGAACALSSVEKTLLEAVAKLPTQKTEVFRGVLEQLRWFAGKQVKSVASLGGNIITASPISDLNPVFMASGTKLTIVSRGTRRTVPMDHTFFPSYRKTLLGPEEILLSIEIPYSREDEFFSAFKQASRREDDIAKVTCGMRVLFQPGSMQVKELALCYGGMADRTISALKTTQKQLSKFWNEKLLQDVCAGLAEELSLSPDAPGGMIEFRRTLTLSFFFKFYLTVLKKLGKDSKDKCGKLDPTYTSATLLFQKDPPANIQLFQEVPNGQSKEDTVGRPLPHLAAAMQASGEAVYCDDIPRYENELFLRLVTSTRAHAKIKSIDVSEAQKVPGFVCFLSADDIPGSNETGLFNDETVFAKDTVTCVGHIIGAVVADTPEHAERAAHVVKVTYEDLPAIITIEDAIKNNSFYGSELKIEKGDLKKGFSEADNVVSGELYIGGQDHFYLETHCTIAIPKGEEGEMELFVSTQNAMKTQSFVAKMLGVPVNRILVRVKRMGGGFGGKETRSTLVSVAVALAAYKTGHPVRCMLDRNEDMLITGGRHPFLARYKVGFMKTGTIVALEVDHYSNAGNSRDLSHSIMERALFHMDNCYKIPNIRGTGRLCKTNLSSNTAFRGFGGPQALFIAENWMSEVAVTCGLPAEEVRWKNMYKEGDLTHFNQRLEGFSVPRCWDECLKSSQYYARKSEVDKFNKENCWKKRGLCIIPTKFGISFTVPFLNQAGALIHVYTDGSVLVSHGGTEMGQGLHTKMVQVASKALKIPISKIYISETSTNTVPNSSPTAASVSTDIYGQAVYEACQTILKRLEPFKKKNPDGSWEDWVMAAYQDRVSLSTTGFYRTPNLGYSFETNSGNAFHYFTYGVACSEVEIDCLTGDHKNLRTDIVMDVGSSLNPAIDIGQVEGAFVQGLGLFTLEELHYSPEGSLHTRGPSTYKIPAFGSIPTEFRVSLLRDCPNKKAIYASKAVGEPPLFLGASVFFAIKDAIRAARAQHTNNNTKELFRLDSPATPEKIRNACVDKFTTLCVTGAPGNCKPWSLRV
// reported log10 IC50 per item
Hello, just confirming the data are log10 of IC50 with units of nM.

MOLECULE	log10 IC50
CCC(C)Oc1ccc(-n2cnc(C(=O)O)c2)cc1C#N (stereo unspecified)	1.87
COc1cccc(-c2ccc(-n3cnc(C(=O)O)c3)cc2C#N)c1	1.87
CC(C)COc1ccc(-c2c[nH]c(C(=O)O)n2)cc1C#N	2.71
CC(C)Oc1ccc(-n2cnc(C(=O)O)c2)cc1C#N	2.30

Form field: log10 IC50 recorded for N#Cc1cc(-c2c[nH]c(C(=O)O)n2)ccc1OC1CCCC1 with Xanthine dehydrogenase/oxidase (Bos taurus) (enter value) 2.59

Field: log10 IC50 (Xanthine dehydrogenase/oxidase (Bos taurus)). Entry: CCC(CC)Oc1ccc(-n2cnc(C(=O)O)c2)cc1C#N 1.61
